Data credit: patent US20160264649A1

Target: HIV-1 Env of isolate MGRM-D-014 (subtype D) (HIV-1)
Experiment: cell-based or functional assay

BINDER | UNIT ABBREV | QUALIFIER SIGN | IC50 (neutralization)
PGT-137 (antibody, V domains shown) VH: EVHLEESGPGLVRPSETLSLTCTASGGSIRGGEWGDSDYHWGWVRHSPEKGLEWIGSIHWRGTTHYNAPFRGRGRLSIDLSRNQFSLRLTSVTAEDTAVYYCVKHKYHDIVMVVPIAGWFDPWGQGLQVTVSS VL: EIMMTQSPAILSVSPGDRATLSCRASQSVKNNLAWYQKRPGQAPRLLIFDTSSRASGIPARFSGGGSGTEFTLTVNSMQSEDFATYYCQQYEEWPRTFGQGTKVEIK | µg/mL | > | 50
PGT-136 (antibody, V domains shown) VH: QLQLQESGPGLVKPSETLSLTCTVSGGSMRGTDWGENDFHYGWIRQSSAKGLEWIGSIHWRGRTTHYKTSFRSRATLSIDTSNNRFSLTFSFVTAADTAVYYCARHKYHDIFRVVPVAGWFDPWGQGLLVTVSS VL: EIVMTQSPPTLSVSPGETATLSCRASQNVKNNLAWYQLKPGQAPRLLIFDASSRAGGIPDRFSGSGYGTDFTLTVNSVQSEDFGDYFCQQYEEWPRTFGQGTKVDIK | µg/mL | > | 50
PGT-130 (antibody, V domains shown) VH: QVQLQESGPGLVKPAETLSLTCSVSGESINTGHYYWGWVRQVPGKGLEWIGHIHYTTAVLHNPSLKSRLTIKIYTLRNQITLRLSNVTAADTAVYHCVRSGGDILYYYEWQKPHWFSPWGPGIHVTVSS VL: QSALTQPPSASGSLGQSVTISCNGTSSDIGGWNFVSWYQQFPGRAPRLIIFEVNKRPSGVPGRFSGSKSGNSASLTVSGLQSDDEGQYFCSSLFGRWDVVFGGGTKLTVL | µg/mL | = | 0.061
PGT-127 (antibody, V domains shown) VH: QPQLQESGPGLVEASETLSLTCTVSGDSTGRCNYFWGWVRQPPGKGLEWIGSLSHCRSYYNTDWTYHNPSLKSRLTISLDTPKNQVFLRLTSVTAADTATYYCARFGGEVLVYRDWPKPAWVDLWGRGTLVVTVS VL: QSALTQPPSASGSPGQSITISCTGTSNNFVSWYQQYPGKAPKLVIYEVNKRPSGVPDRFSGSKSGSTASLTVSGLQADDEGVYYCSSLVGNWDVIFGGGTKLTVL | µg/mL | = | 0.393
PGT-135 (antibody, V domains shown) VH: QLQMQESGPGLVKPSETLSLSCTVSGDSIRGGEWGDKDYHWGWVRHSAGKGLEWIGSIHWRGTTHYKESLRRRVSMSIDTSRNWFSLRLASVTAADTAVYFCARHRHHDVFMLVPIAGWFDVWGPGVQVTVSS VL: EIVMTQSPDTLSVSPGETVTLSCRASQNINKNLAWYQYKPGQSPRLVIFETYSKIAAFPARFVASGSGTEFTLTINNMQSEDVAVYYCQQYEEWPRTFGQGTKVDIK | µg/mL | = | 2.21
PGT-128 (antibody, V domains shown) VH: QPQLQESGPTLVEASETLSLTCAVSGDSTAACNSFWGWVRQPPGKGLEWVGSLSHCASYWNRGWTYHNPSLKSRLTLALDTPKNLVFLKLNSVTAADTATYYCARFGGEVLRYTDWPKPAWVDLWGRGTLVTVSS VL: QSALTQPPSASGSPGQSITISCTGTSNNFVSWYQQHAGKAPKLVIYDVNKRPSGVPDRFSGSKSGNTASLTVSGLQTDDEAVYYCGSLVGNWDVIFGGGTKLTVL | µg/mL | = | 0.013
PGT-131 (antibody, V domains shown) VH: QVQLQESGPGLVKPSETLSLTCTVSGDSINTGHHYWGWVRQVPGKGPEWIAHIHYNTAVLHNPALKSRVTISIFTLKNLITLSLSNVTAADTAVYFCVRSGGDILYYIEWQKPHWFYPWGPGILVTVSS VL: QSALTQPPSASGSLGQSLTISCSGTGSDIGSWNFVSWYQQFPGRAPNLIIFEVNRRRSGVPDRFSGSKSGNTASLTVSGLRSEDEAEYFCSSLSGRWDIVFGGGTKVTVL | µg/mL | = | 0.516
PGT-123 (antibody, V domains shown) VH: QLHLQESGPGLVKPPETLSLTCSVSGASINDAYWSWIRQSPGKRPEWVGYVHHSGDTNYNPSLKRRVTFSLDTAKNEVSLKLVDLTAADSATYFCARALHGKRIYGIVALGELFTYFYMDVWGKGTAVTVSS VL: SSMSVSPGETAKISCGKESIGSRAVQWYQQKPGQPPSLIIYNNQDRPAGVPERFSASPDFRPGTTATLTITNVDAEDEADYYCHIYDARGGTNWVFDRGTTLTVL | µg/mL | = | 0.009
PGT-126 (antibody, V domains shown) VH: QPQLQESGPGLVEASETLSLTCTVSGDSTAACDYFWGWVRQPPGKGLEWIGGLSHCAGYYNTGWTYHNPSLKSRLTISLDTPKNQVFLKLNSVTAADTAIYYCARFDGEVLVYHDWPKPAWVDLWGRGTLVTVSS VL: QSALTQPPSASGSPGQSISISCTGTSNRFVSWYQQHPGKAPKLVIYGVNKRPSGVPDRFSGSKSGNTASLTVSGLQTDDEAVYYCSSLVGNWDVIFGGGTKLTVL | µg/mL | = | 0.03
PGT-125 (antibody, V domains shown) VH: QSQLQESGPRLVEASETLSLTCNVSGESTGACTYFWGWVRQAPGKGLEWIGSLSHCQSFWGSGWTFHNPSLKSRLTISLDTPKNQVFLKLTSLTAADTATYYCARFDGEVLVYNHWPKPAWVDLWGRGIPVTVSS VL: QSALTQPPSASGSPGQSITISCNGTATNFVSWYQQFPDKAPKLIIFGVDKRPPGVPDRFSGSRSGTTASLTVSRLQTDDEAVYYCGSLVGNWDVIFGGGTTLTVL | µg/mL | = | 0.12
